tested_on: HDAC6 human recombinant (Homo sapiens, UniProt Q9UBN7)
Construct: purchased Calbiochem 382180
protocol: HDAC enzyme activity inhibition (in vitro), HDAC6 assay
Assay type: biochemical
test_parameters: samples at 0.1, 1, 10, 100 and 1000 nM; 37° C. 60 minutes; fluorescence Ex 390, Em 460; read-out: HDAC6 IC50
The threshold is 100 nM. Values of IC50 beneath it are tagged yes (1); values meeting or exceeding it are tagged no (0).

Query: Dear colleague, could you confirm whether IC50 of O=c1n(Cc2ccc(-c3nnc(C(F)F)o3)cn2)c2ccc(-c3cccnc3)cc2n1C1CCN(C2COC2)CC1 falls below 100 nM? Thanks.
Response: yes (1)

Query: Same thing, different compound: CS(=O)(=O)N1CCC(n2c(=O)n(Cc3ccc(-c4nnc(C(F)F)o4)cc3)c3ncccc32)CC1
Response: no (0)

Query: Repeat for the following compound: CC(=O)N1CCC(n2c(=O)n(Cc3ccc(-c4nnc(C(F)F)o4)cc3F)c3ccc(Cl)cc32)CC1
Response: no (0)

Query: Same again, this time with Cc1ccc(-c2ccc3c(c2)n(C2CCN(C)CC2)c(=O)n3Cc2ccc(-c3nnc(C(F)F)o3)cc2F)o1
Response: yes (1)

Query: Same question for CS(=O)(=O)N1CCC(n2c(=O)n(Cc3ccc(-c4nnc(C(F)F)o4)cc3)c3cc(F)c(F)cc32)CC1 please.
Response: yes (1)

Query: // repeat for CN1CCC(Cn2c(=O)n(Cc3ccc(-c4nnc(C(F)F)o4)cn3)c3ccccc32)CC1 and report
Response: no (0)

----------
Provide the recorded IC50 for the entries that follow.
tested_on: HDAC6 human recombinant (Homo sapiens, UniProt Q9UBN7)
Construct: purchased Calbiochem 382180
protocol: HDAC enzyme activity inhibition (in vitro), HDAC6 assay
Type: biochemical
test_parameters: samples at 0.1, 1, 10, 100 and 1000 nM; 37° C. 60 minutes; fluorescence Ex 390, Em 460; read-out: HDAC6 IC50
API: value field is a number in nM; no unit string.

Query: Recorded IC50 of CN1CCC(n2c(=O)n(Cc3ccc(-c4nnc(C(F)F)o4)cc3F)c3cc(F)c(-c4cccnc4)cc32)CC1 , please.
Response: 24

Query: Then this compound: CN1CCC(n2c(=O)n(Cc3ccc(-c4nnc(C(F)F)o4)cn3)c3cc(F)c(-c4ccncc4)cc32)CC1
Response: 16

Query: And the next one, CCN1CCN(c2ccc(-c3cc4oc(=O)n(Cc5ccc(-c6nnc(C(F)F)o6)cn5)c4cc3F)cn2)CC1 ?
Response: 62

Query: Can you handle Cn1c(=O)n(Cc2ccc(-c3nnc(C(F)F)o3)cn2)c2cc(F)c(-c3cccc4[nH]ccc34)cc21 next?
Response: 8

Query: Now try O=c1n(Cc2ccc(-c3nnc(C(F)F)o3)cn2)c2cc(F)c(-c3cccc4[nH]ccc34)cc2n1[C@@H]1CCN(C2COC2)C1 .
Response: 10

Query: CC(F)(F)CN1CCC(n2c(=O)n(Cc3ccc(-c4nnc(C(F)F)o4)cn3)c3cc(Cl)ccc32)CC1 , same question.
Response: 54

Query: One more compound: O=c1n(Cc2ccc(-c3nnc(C(F)F)o3)cn2)c2cc(F)ccc2n1C1CCN(C2CCSCC2)CC1
Response: 36

Query: O=c1n(Cc2ccc(-c3nnc(C(F)F)o3)cn2)c2ccccc2n1C1CC2(COC2)C1 , same question.
Response: 64

----------
tested_on: HDAC1 (Homo sapiens, UniProt Q13547)
Construct: purchased Enzolifesciences BML-AK511
Sequence (Q13547 whole entry): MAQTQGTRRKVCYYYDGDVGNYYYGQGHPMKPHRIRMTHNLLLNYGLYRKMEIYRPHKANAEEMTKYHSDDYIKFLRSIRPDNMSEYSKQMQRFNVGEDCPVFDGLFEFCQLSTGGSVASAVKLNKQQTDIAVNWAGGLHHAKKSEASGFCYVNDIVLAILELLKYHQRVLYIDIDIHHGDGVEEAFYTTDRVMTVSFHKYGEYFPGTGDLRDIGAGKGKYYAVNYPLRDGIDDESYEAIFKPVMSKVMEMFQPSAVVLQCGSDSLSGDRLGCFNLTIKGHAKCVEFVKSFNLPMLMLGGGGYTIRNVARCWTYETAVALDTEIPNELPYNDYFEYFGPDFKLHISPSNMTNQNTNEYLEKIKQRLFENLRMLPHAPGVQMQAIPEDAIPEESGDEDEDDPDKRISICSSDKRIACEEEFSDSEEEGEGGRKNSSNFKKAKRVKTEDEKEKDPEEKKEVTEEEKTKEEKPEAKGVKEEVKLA
protocol: HDAC enzyme activity inhibition (in vitro), HDAC1 Fluorimetric Drug Discovery Assay Kit
Assay type: biochemical
test_parameters: samples at 100, 1000 and 10000 nM; 37° C. 60 minutes; fluorescence Ex 390, Em 460; read-out: HDAC1 IC50
observed_property: IC50

Query: Which IC50 is listed for CN1CCC(n2c(=O)n(Cc3ccc(-c4nnc(C(F)F)o4)cn3)c3ccc(C4CCN(S(C)(=O)=O)CC4)cc32)CC1 ?
Response: > 10 µM

Query: Likewise for CN1CCC(n2c(=O)n(Cc3ccc(-c4nnc(C(F)F)o4)cc3)c3cc(-c4cccnc4)ccc32)CC1 ?
Response: > 10 µM

Query: Moving on to O=c1oc2cc(-c3ccc(CN4CCOCC4)nc3)c(F)cc2n1Cc1ccc(-c2nnc(C(F)F)o2)cn1
Response: > 10 µM

Query: Then Cn1c(=O)n(Cc2ccc(-c3nnc(C(F)F)o3)cn2)c2cc(F)c(N3CCN(Cc4cccc5[nH]ccc45)CC3)cc21 ?
Response: > 10 µM

Query: Please answer likewise for Cn1c(=O)n(Cc2ccc(-c3nnc(C(F)F)o3)cc2F)c2cc(F)c(Br)cc21
Response: > 10 µM

Query: Further, for CN1CCC(n2c(=O)n(Cc3ccc(-c4nnc(C(F)F)o4)cn3)c3cc(F)c(-c4ccncc4)cc32)CC1 ?
Response: > 10 µM

Query: Record: Cn1c(=O)n(Cc2ccc(-c3nnc(C(F)F)o3)cc2F)c2cc(F)c(-c3cccnc3)cc21
Response: > 10 µM

Query: Try the compound CS(=O)(=O)N1CCC(n2c(=O)n(Cc3ccc(-c4nnc(C(F)F)o4)cn3)c3ccc(Cl)cc32)CC1
Response: > 10 µM

Query: Proceed to O=c1oc2ccccc2n1Cc1ccc(-c2nnc(C(F)F)o2)cc1F
Response: > 10 µM

Query: Same lookup for CN1CC(n2c(=O)n(Cc3ccc(-c4nnc(C(F)F)o4)cn3)c3cc(F)c(-c4cccc5[nH]ccc45)cc32)C1 , please.
Response: > 10 µM

Query: O=c1sc2cc(-c3cnn(C4CCN(CC5(F)CC5)CC4)c3)ccc2n1Cc1ccc(-c2nnc(C(F)F)o2)cn1 ?
Response: > 10 µM

Query: And then O=c1n(Cc2ccc(-c3nnc(C(F)F)o3)cn2)c2cc(F)c(-c3cccc4[nH]ccc34)cc2n1C1CN(C2COC2)C1 , what is it?
Response: > 10 µM

Query: What do we get for CCN1CCC[C@H](n2c(=O)n(Cc3ccc(-c4nnc(C(F)F)o4)cn3)c3cc(F)c(-c4ccncc4)cc32)C1 ?
Response: > 10 µM

Query: Check CN1CCC(n2c(=O)n(Cc3ccc(-c4nnc(C(F)F)o4)cc3)c3cc(Br)ccc32)CC1 too.
Response: > 10 µM

Query: And CCN1CCC[C@H](n2c(=O)n(Cc3ccc(-c4nnc(C(F)F)o4)cn3)c3cc(F)c(-c4cccnc4)cc32)C1 ?
Response: > 10 µM

----------
tested_on: HDAC6 human recombinant (Homo sapiens)
Construct: purchased Calbiochem 382180
Sequence (Q9UBN7 1-1215): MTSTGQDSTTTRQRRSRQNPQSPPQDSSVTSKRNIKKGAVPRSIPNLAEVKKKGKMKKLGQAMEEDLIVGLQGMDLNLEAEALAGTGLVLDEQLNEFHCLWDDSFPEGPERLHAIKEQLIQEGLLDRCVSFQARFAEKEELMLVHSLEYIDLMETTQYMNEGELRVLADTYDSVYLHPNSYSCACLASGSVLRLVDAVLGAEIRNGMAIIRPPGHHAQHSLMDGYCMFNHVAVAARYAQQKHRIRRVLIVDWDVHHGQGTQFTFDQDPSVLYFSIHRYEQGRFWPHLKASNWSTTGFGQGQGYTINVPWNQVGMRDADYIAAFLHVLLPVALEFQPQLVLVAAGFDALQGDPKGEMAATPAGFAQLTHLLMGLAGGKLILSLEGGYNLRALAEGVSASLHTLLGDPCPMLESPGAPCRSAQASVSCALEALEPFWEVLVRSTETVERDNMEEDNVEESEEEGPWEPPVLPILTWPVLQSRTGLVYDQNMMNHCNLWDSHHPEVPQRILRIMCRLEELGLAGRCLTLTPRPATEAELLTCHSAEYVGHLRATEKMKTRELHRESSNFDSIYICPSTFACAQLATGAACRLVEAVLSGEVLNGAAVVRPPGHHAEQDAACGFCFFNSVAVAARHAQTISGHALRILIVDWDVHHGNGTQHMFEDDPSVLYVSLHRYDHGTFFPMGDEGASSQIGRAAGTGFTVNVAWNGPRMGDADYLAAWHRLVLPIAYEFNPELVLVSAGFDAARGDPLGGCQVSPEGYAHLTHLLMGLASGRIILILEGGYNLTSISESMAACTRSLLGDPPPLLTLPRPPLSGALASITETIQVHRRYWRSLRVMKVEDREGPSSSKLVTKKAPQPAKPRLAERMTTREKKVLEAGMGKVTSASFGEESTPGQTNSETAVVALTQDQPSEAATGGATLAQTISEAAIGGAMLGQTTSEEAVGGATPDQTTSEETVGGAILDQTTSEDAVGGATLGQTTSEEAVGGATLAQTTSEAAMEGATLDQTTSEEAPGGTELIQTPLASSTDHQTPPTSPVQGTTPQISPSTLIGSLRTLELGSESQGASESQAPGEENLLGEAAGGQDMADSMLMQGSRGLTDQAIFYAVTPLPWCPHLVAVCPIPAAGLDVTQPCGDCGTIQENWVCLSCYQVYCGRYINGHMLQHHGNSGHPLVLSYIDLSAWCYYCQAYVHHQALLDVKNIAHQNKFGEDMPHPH
protocol: HDAC enzyme activity inhibition (in vitro), HDAC6 assay
Type: biochemical
test_parameters: samples at 0.1, 1, 10, 100 and 1000 nM; 37° C. 60 minutes; fluorescence Ex 390, Em 460; read-out: HDAC6 IC50
observed_property: IC50
Answer format reminder: number followed by unit.

Query: Item CS(=O)(=O)N1CCC(n2c(=O)n(Cc3ccc(-c4nnc(C(F)F)o4)cn3)c3ncccc32)CC1 with HDAC6 human recombinant (Homo sapiens) - IC50?
Response: 105 nM

Query: Now the same for Cn1c(=O)n(Cc2ccc(-c3nnc(C(F)F)o3)cc2F)c2cc(F)c(-c3ccc(CN4CCOCC4)nc3)cc21
Response: 65 nM

Query: Now the molecule CN1CCC(n2c(=O)n(Cc3ccc(-c4nnc(C(F)F)o4)cn3)c3ccc(F)cc32)CC1
Response: 121 nM

Query: Field entry: Cn1c(=O)n(Cc2ccc(-c3nnc(C(F)F)o3)cn2)c2cc(F)c(N3CCN(CC(F)(F)F)CC3)cc21
Response: 59 nM

Query: Another molecule: O=c1n(Cc2ccc(-c3nnc(C(F)F)o3)cc2F)c2cc(C(F)(F)F)ccc2n1C1CCN(C2COC2)CC1
Response: 62 nM

Query: Again, but for O=c1oc2cc(-c3cnn(C4CCN(C5COC5)CC4)c3)c(F)cc2n1Cc1ccc(-c2nnc(C(F)F)o2)cn1
Response: 31 nM

Query: Let us now turn to O=c1n(Cc2ccc(-c3nnc(C(F)F)o3)cc2F)c2cc(Cl)c(Cl)cc2n1C1CCN(C2COC2)CC1
Response: 38 nM

Query: Next up: O=c1n(Cc2ccc(-c3nnc(C(F)F)o3)cc2F)c2ccccc2n1C1COC1
Response: 158 nM

Query: Try O=c1n(Cc2ccc(-c3nnc(C(F)F)o3)cn2)c2cc(F)c(N3CCN(Cc4cn[nH]c4)CC3)cc2n1C1COC1 next.
Response: 35 nM

Query: Also check O=c1n(Cc2ccc(-c3nnc(C(F)F)o3)cc2)c2ccc(Cl)cc2n1C1CCN(C2COC2)CC1
Response: 39 nM

Query: Consider next the molecule CC(C)(C)OC(=O)N1CCC(n2cc(-c3ccc4c(c3)sc(=O)n4Cc3ccc(-c4nnc(C(F)F)o4)cn3)cn2)CC1 in the same way.
Response: 170 nM
